system: OVCAR-5 ovarian; test: NCI tumour cell line growth inhibition, 48 h; in the data active means GI50 below about 0.43 µM; inactive means the rest
Outcome codes: active, inactive

- Smiles str: "COc1ccc(/C=C/C(=O)c2ccc(Nc3nc(Nc4ccc(F)cc4)nc(Nc4ccc(F)cc4)n3)cc2)cc1"
  Class label: "inactive"
- Smiles str: "COC(=O)c1cc(C)[nH]c2c(C)cc3nc4ccccc4c3c12"
  Class label: "inactive"
- Smiles str: "COc1ccc(S(=O)(=O)Nc2cc(Sc3cccc4cccnc34)c(O)c3ccccc23)cc1"
  Class label: "inactive"
- Smiles str: "N=C1C=C(N)C(=O)c2ccccc21"
  Class label: "active"
- Smiles str: "CCOC(=O)N(O)c1ccc(/C=C/c2ccccc2)cc1"
  Class label: "inactive"

* * *

# TGI per record follows
tested on: SF-295 CNS; experiment: NCI tumour cell line growth inhibition, 48 h
Value type: TGI

- Compound: "NC(=S)NS(=O)(=O)c1ccc(Cl)cc1"
  Endpoint value: "> 100 µM"
- Compound: "Cc1cc(OCc2nnc3n2N=C(c2cc(F)c(Cl)cc2Cl)/C(=C/c2ccc(-c4ccc(Cl)cc4)o2)S3)ccc1Cl"
  Endpoint value: "> 50 µM"
- Compound: "CN(C)C(=S)/N=c1\\ss/c(=N\\S(=O)(=O)c2ccccc2)n1C"
  Endpoint value: "> 100 µM"
- Compound: "COc1cc2c(=O)n(CC3CCCCC3)c3c4cc[nH]c4ncc3c2cc1OC"
  Endpoint value: "10.7 µM"
- Compound: "CN1C/C(=C\\c2ccc(C(=O)O)cc2)C(=O)/C(=C/c2ccc(C(=O)O)cc2)C1"
  Endpoint value: "> 100 µM"
- Compound: "COc1ccc2c(c1)C=CC1C2CC[C@]2(C)C(NC(=O)/C=C/c3ccc(O)c(O)c3)CCC12 (some centres undefined)"
  Endpoint value: "70.3 µM"
- Compound: "CC(C)=CCC[C@@H](C)C1=C(O)C(Nc2ccccc2)=C(C)C(=O)C1=O"
  Endpoint value: "32.4 µM"
- Compound: "O=C(NNc1nc(-c2ccccc2)cs1)Nc1ccccc1"
  Endpoint value: "83.6 µM"
- Compound: "CC(C)(C)CC(C)(C)NCC(O)COc1ccc(C(C)(C)c2ccc(OCC(O)CNC(C)(C)CC(C)(C)C)cc2)cc1 (centres undefined)"
  Endpoint value: "3.21 µM"

* * *

// reported TGI for each item listed
test system: SK-OV-3 ovarian; assay: NCI tumour cell line growth inhibition, 48 h

- Compound: "O=C(/C=C/c1ccc(Cl)cc1Cl)c1ccc(Cl)cc1Cl"
  TGI: "> 100 µM"
- Compound: "C=C(CN1CCN(c2ccc(F)c(Cl)c2)CC1)c1ccc(C(=O)Nc2ccccc2N)cc1"
  TGI: "> 100 µM"
- Compound: "COc1ccc(F)cc1-c1ccnc2[nH]c(C3=CCN(C4CCC(CC(=O)O)CC4)CC3)cc12 (centres undefined)"
  TGI: "> 100 µM"
- Compound: "COC(=O)C(CNC(=O)/C=C/c1ccc(OC(C)=O)c(OC(C)=O)c1)NC(=O)/C=C/c1ccc(OC(C)=O)c(OC(C)=O)c1 (centres undefined)"
  TGI: "> 100 µM"
- Compound: "Cn1cccc1-c1cc(-c2ccccc2)nc(N)c1C#N"
  TGI: "> 100 µM"
- Compound: "Cc1cc2nc(-c3ccc(O)c(O)c3)n(Cc3ccc(O)c(O)c3)c2cc1C"
  TGI: "> 100 µM"
- Compound: "C[C@@H]1Cc2c(ccc3[nH]ncc23)[C@@H](c2ccc(NC3CN(CCCF)C3)cn2)N1CC(F)(F)F"
  TGI: "37.1 µM"
- Compound: "Cn1cc(-c2csc(-c3cn(C(=O)OC(C)(C)C)c4ccccc34)n2)c2cccnc21"
  TGI: "48.2 µM"
- Compound: "C1CC[N-]CC1.CC(=N\\O)/C(C)=N/O.CC(=N\\O)/C(C)=N/O.C[CH-]C(C)O.[Co+2]"
  TGI: "> 100 µM"

These entries and their values trace back to PubChem BioAssay (NCI).
